Cited source for all entries: patent US20240376207A1

Assayed Target: T1, his-tagged human PVRIG (h-PVRIG-his) recombinant protein (human, UniProt Q6DKI7 41-171, limits assumed)
T1 construct: bought from Acrobiosystems; also called Human PVRIG-his; human PVRIG recombinant protein; not shown: his tag
T1 sequence (looked up): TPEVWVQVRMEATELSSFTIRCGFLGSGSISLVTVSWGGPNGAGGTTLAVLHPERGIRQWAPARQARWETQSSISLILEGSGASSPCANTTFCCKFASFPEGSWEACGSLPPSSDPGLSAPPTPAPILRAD
Protocol Text: BLI (Fortebio), antibody on Protein A sensor, 1:1 fit
Readout Label: kon

Example results:
1. anti-PVRIG antibody 151 (antibody, human IgG4 S228P, F234A L235A, V domains shown, no light chain) VH: HVQLVESGGGSVQAGGSLRLSCVASASGFTYRPYCMAWFRQAPGKEREAVAGIDIFGGTTYADSVKGRFTASRDNAGFSLFLQMNDLKPEDTAMYYCAAGDSPDGRCPPLGQGLNYWGQGTQVTVSS ... 261000 M⁻¹ s⁻¹
2. anti-PVRIG antibody 39 (antibody, human IgG4 S228P, F234A L235A, V domains shown, no light chain) VH: QVQLVESGGGSVQAGGSLRLSCAASRYTSRTDCMGWFRQAPGKEREGVAHIDSDGIPRYVESVKGRFTISQDHAKNTLYLQMNSLKPEDSATYYCVVGFKFGDYCAPNDWGQGTQVTVSS ... 242000 M⁻¹ s⁻¹
3. anti-PVRIG antibody 30 (antibody, human IgG4 S228P, F234A L235A, V domains shown, no light chain) VH: HVQLVESGGGSVQAGGSLRLSCEASGYSYSGDCMGWFRRAPGKERDEGVATIDNAGRIKYADSVKGRFTISHGNGKYILYLQMNSLKPEDTDMYYCAAGWTFGGNCSPADWGQGTQVTVSS ... 284000 M⁻¹ s⁻¹

Turning now to a further binder:
Request: Entry anti-PVRIG antibody 38 (antibody, human IgG4 S228P, F234A L235A, V domains shown, no light chain) VH: QVQLVESGGGSVQAGGSLRLSCAASPSTYGPSDMAWFRQAPGKQREGVATISAAGRLTYYTDSVRGRFTISRDNAKNTMYLQMNSLKPEDTAMYYCAADFAGGSSLFADYKYWGQGTQVTVSS has what kon?
Response: 132000 M⁻¹ s⁻¹
